Test: NCI Yeast Anticancer Drug Screen. Data for the sgs1 mgt1 strain (AID 161);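 also: 0% = growth of cultures given vehicle only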
Settings: S. cerevisiae sgs1 mgt1 strain, at 50.0 µM, hits give high values
Compounds without any hit were thinned out: in the full panel of roughly 79,000, 15% have a hit.
endpointName: growth inhibition (%)
Enter your answer as a number in %; do not include the unit.

structuresmiles=CCN(CC)/[N+]([O-])=N/O datavalue=-2.35
structuresmiles=CN(C)c1ccc(/C=N/NC(=O)c2ccc(N)cc2)cc1 datavalue=-12.7
structuresmiles=Cc1onc(-c2c(F)cccc2Cl)c1-c1ncc(-c2ccc(Cl)cc2)o1 datavalue=29.4
structuresmiles=Cc1cc(Cl)nc(Nc2ccccc2)n1 datavalue=3.8
structuresmiles=CC(=O)NS(=O)(=O)c1ccc(N=C=S)cc1 datavalue=-12.8
structuresmiles=CCOC(=O)CC(=O)C(=O)NNC1=NCCN1 datavalue=23.6
structuresmiles=CC(=O)N(CCCCNC(=O)C(F)(F)F)CCCNC(=O)C(F)(F)F datavalue=6.55

Field: next molecule
Given "CCCCCCCCCCCC(=O)CC(=O)c1c(O)cccc1O" , state its recorded growth inhibition.
6.45

The reported measurements were obtained from PubChem BioAssay (NCI).
